- Tested on: MS2 coat protein
- method: apparent KD of MS2 coat protein; higher = weaker reporter binding
- condition-parameters: Eterna round: R107; input ligand: arginine 13.2 mM
This section presents sequences with their documented apparent KD of MS2 coat protein values.
Give just the numeric value; nM need not be written.

Worked cases, answers included:
[
  {
    "sequence-text": "CAUGAGAGAUUGUUUUGUGACUCUAACGAUACCAGAGUAGGACUUCUCCCUUGGCAGCGUGUGACAUGAGGAUCACCCAUGUCCA [theeternabot_exclusion_MS2_Theo_A_5]",
    "apparent KD of MS2 coat protein [nM]": 11.8
  },
  {
    "sequence-text": "UCCACAUGAGGAUCACCCAUGUAAUCAGAUACCAGUGACGAAAGUCACCCUUGGCAGCUGAUUACUUUAGUUCGAGGGUGUUUGA [EThA NP+V+V2 #4 Same Structure]",
    "apparent KD of MS2 coat protein [nM]": 84.5
  },
  {
    "sequence-text": "GGCGUCGGGCGAAGGAGCGUGAAGACAUGAGGAUCACCCAUGUAGAGGCCCGGACAGGGUUCGCAGGUAGGUCGCGCGCGGUGCC [#1 Same State - Arginine B Attempt #7 (HarryS)]",
    "apparent KD of MS2 coat protein [nM]": 17.5
  },
  {
    "sequence-text": "GGUUGGUGUAGAGAUAUAUUGAUUACUGAAGGAGCGGGAAUAAACCCAGGUAGGUCGCAGAGAUCCACAUGAGGAUCACCCAUGU [!0.O]",
    "apparent KD of MS2 coat protein [nM]": 32
  }
]

Would you kindly look at the next entry?
Observed apparent KD of MS2 coat protein on MS2 coat protein for CGUCGAAACUGAAGGAGCGAGAUAACAACAUUGGGUCUCAACAUGAGGAUCACCCAUGUAUCUCAGGUAGGUCGCGGUGUCACCG [Exclusion Arginine B GF19] , please.
176

----------
This section presents sequences with their documented apparent KD of MS2 coat protein values.
- Test system: MS2 coat protein
- method: apparent KD of MS2 coat protein; designed switch direction (-1 OFF switch, 1 ON switch): 1; higher = weaker reporter binding
- condition-parameters: input ligand: none
Give just the numeric value; nM need not be written.

Worked cases, answers included:
[
  {
    "sequence-text": "AGAUGUUAAUCAGGAUAUGGGCACAUGAGGAUCACCCAUGUAACGUAGAUACGAUGUGGUCAAGUCUAGAAGGGAUGGCUAACA [SameState NG2 #79] (Eterna round: R96, puzzle: Same State NG 2)",
    "readout": "apparent KD of MS2 coat protein",
    "measured-result": 90.7
  },
  {
    "sequence-text": "GUAGCAUACCGAGGAUAUUCAUAUAAUAAAUAAACAUGAGGAUCACCCAUGUGGCGAAAGCCUUGGGAGAAGGCGGAAUGCUAC [Xeonanis - 20 Mod55] (Eterna round: R96, puzzle: Same State NG 2)",
    "readout": "apparent KD of MS2 coat protein",
    "measured-result": 486
  },
  {
    "sequence-text": "ACCCGCGGGCCACAUGAGGAUCACCCAUGUGACCGGUGAUCCAAGGAUAUGUGUAGGGUAGAUGCACAGAAGGUGGCCAAAACU [Ainriqu] (Eterna round: R96, puzzle: Same State NG 3)",
    "readout": "apparent KD of MS2 coat protein",
    "measured-result": 18.5
  },
  {
    "sequence-text": "GUGGUCAAUCAAGGAUAUGGAGCCUUAUUGGCUCCAGAAGGUGGGACAUGAGGAUCACCCAUGUGGCAGUGGUCAAAUGACCAC [Fiskers NG1ss - 34] (Eterna round: R96, puzzle: Same State NG 1)",
    "readout": "apparent KD of MS2 coat protein",
    "measured-result": 164
  }
]

Look up apparent KD of MS2 coat protein: AGAUCAUGACGAGGAUAUGCCACAUGAGGAUCACCCAUGUAUGUGGUAGGACGCGUACGUCCAAAGCAGAAGGCGUCGUGGUCA [JL SSNG2 1.01] (Eterna round: R96, puzzle: Same State NG 2)
55.5

Look up apparent KD of MS2 coat protein: AAACACAGCAUAACGCCGUGACAUGAGGAUCACCCAUGUACACAGGAUAUCAUGGCAUAACGCCAUGAGAAGGGUGAUCAAGAC [Raorma] (Eterna round: R96, puzzle: Same State NG 3)
78.8

Look up apparent KD of MS2 coat protein: AUUAUUAAUGCAGGAUAUGAUUAACAUGAGGAUCACCCAUGUGGUGUUGUGAGUAAGGAGAGUGAUCAGAAGGGCAUUUUGUUU [JMF's solution 12] (Eterna round: R96, puzzle: Same State NG 2)
591

----------
- System: K4 kissing-loop RNA reporter;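 further: bound reporter read as fluorescence of individual clusters on recovered sequencing chips by microscopy, with normalized cluster intensities fitted with a binding model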
- method: apparent KD of K4 kissing-loop reporter; higher = weaker reporter binding
- condition-parameters: Eterna round: R107; input ligand: none
This section presents sequences with their documented apparent KD of K4 kissing-loop reporter values.
Give just the numeric value; nM need not be written.

[
  {
    "sequence-text": "AGGAUCCGUCGACAAAAGUCGACAUAAACCGAGGAUAUGACGAAAGUCAGAAGGUGGUCAUAAGACCAGUGAUGUUGGUGGAUCC [FmnA 14 #SwitchBubble #K4Late]",
    "test-target": "K4 kissing-loop RNA reporter",
    "measured-result": 494
  },
  {
    "sequence-text": "CAGAUCACAGAGUGAUGUUCUGUGUCCGAAGGAGCGCGCGAGAGCGCAGGUAGGUCGCGGAUACAGUUGACGUACCAUCUAGACA [Arg A Ex t3b]",
    "test-target": "K4 kissing-loop RNA reporter",
    "measured-result": 278
  },
  {
    "sequence-text": "GCCUAGCAGGGAAGGAGCGCCAUAAGAAGUAAAGGAGGGAGUUGAGUGAUGUUCAAAAUGUGGCAGGUAGGUCGCCCUGCUAGGC [KL-SSArg B13]",
    "test-target": "K4 kissing-loop RNA reporter",
    "measured-result": 635
  },
  {
    "sequence-text": "CGUUUCUCUGUCGAUACCAGCUUCAGUUGGCGGCCAGUGAUGUUGGUAUCGCCGAUGCCAAGCCCUUGGCAGCGACAUGAGACCC [Gezausin]",
    "test-target": "K4 kissing-loop RNA reporter",
    "measured-result": 193
  },
  {
    "sequence-text": "AGACUUCACCGAAGGAGCGACGUGGUCUAGUGAUGUUAGACACGAGAGAAAUCUCGUAUACGUCAGGUAGGUCGCGGUGAAGUCA [Omei KL Arginine B SS C v9]",
    "test-target": "K4 kissing-loop RNA reporter",
    "measured-result": 146
  },
  {
    "sequence-text": "AAGUAGAUCAAGAUCUAGUAUCUAGAUCAACGAGGACCGGUACGGCCGCCACUCGAAUAAUAGAGUGAUGUUCUAAGAUCUACAA [AK1.4 SS Tryptophan A]",
    "test-target": "K4 kissing-loop RNA reporter",
    "measured-result": 994
  }
]

Look up apparent KD of K4 kissing-loop reporter: UUUGAAAUGUCUGAUACCAGAGAAAAUAUAUGUAGUGAUGUUAUAUACAAAUUUAAUAAGCUCCCUUGGCAGCAGUAUGAAUUUU [AstrosExc-TheB#14]
796

Look up apparent KD of K4 kissing-loop reporter: UAAUCUAACGAGAGUGAUGUUCUCGUCACAGAGGAUAUACGAUUUAGUAGAAGGCUGUUGGAUUCGCUUAAUGAUGACUAGAUUA [FMN A SS t1]
223

Look up apparent KD of K4 kissing-loop reporter: CCAUUCUUUUACGAUACCAGUUUAAUAUAUUUAUUCAAAACCCUUGCCGAGUGAUGUUCGGACCCUUGGCAGCGUUUGCGAGAGG [ttedstkmullin]
465

----------
This section presents sequences with their documented apparent KD of MS2 coat protein values.
- System: MS2 coat protein
- method: apparent KD of MS2 coat protein; higher = weaker reporter binding
- condition-parameters: Eterna round: R107; input ligand: theophylline 20 uM
Give just the numeric value; nM need not be written.

[
  {
    "sequence-text": "AACAUGAGGAUCACCCAUGUGUCCUCGAAACGAGGACCGGUACGGCCGCCACUCGAAAAGGUGUUGACGAAAAGUCAGCACCAAA [Mat - Exclusion - Trytophan A - D16]",
    "reading-unit": "nM",
    "apparent KD of MS2 coat protein": 451
  },
  {
    "sequence-text": "AGUCUGGACUCGGCCGCCACUCGUGAUGCUUUGGCACAUGAGGAUCACCCAUGUGGUCGGCCUUAGAGGACCGGGAGUACCAGUC [Ariaredle]",
    "reading-unit": "nM",
    "apparent KD of MS2 coat protein": 84.9
  },
  {
    "sequence-text": "AGCGACAUGCGUGAUACCAGCUACAUGAGGAUCACCCAUGUCAGCAGGAAACUGCUGUGUAGCCCUUGGCAGCACAGUGCAUGUC [Exclusion - Theophylline B (Freestyle 28)]",
    "reading-unit": "nM",
    "apparent KD of MS2 coat protein": 18.1
  },
  {
    "sequence-text": "GCAUCCUAGUCGGCCGCCACUGGUAUCAACACCUUCACCCGUGUGCACAUGAGGAUCACCCAUGUUAGGACCGGGACUAGGAUGC [SSTryp B #19]",
    "reading-unit": "nM",
    "apparent KD of MS2 coat protein": 12.5
  },
  {
    "sequence-text": "UCUUUCUAUGUAGAUACCAGCAUGUUAUAUUUCUAAUGACAUGAGGAUCACCCAUGUAAAUGCCCUUGGCAGCUACAUUUUCUUU [SSTHB #4]",
    "reading-unit": "nM",
    "apparent KD of MS2 coat protein": 22.3
  }
]

Would you kindly look at the next entry?
Look up apparent KD of MS2 coat protein: ACAUUUAACUGAAGGAGCGUGAUAUUUACAUGAGGAUCACCCAUGUCUUUCAUGAUAUAUUCACAGGUAGGUCGCAGACUAAUGA [JR_ExcArginiB_Sub006]
160

These measurements were taken from the supplement of paper PMC9170038.
